Reference for the values: patent US12180192B2

system_name: THR beta (Homo sapiens)
Construct: expressed in transfected cells; host or cells: HEK293T (ATCC CRL-3216)
test_method_notes: HEK293T THR beta/RXR luciferase reporter assay (Assay 2)
Assay type: cell-based
setup_conditions: THR-beta, HEK293T reporter assay; read-out: Activity category Assay 2 (EC50, THR-beta agonist)
Protocol: HEK293T Reporter THRalpha/Beta/RXR Reporter Assay (Assay 2) The purpose of this assay is to evaluate the effect of compounds on the thyroid hormone nuclear receptor pathway in HEK293T cells. […] Transfected cells are stimulated with test compounds for 18-24 hours before activation of the thyroid hormone pathway is measured via a luciferase read-out. Procedure. […] Percent agonism is calculated using the following equation: 100× (sample-negative control)/(positive control-negative control).
pEC50: −log10 of the molar value.
pEC50 overview

compound	pEC50
CCC(C)c1cc(Oc2c(Cl)cc(-n3nc(N)c(=O)[nH]c3=O)cc2Cl)n[nH]c1=O (stereo not shown) [Compound 39-A]	6.60 to 7.30
Nc1nn(-c2cc(Cl)c(Oc3cc(-c4ccc5ccccc5c4)c(=O)[nH]n3)c(Cl)c2)c(=O)[nH]c1=O	6.60 to 7.30
Cc1cc(-n2nc(N)c(=O)[nH]c2=O)cc(C)c1Cc1ccc2c(c1)C1(CCCC1)C(=O)N2	> 7.30
Nc1nn(-c2cc(Cl)c(Oc3cc(C(O)C4CCCC4)c(=O)[nH]n3)c(Cl)c2)c(=O)[nH]c1=O (stereo not shown)	6.60 to 7.30
Nc1nn(-c2cc(Cl)c(Oc3cc(-c4ccc5c(c4)CCCC5)c(=O)[nH]n3)c(Cl)c2)c(=O)[nH]c1=O	6.60 to 7.30
CC(C)c1cc(Oc2c(Cl)cc(-n3nc(N)c(=O)[nH]c3=O)c3c2CC3)n[nH]c1=O	< 5.00
CCCc1c[nH]c2ccc(Oc3c(Cl)cc(-n4nc(C#N)c(=O)[nH]c4=O)cc3Cl)cc12	6.60 to 7.30

====

system_name: THR beta (Homo sapiens)
Construct: expressed in transfected cells; host or cells: HEK293T (ATCC CRL-3216)
Sequence (P10828 1-461): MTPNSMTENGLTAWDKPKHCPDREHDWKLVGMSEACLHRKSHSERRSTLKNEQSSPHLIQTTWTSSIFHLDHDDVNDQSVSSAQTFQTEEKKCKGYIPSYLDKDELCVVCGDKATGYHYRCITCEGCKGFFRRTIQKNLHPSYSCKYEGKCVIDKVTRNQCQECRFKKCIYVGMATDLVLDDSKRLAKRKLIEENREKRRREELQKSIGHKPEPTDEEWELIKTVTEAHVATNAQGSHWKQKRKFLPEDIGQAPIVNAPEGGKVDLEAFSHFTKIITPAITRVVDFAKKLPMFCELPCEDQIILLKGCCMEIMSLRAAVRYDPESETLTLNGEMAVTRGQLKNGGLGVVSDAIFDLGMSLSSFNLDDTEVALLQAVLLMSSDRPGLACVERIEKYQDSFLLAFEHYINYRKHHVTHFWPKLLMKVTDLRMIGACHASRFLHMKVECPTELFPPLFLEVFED
Sequence (P19793 1-462 partner): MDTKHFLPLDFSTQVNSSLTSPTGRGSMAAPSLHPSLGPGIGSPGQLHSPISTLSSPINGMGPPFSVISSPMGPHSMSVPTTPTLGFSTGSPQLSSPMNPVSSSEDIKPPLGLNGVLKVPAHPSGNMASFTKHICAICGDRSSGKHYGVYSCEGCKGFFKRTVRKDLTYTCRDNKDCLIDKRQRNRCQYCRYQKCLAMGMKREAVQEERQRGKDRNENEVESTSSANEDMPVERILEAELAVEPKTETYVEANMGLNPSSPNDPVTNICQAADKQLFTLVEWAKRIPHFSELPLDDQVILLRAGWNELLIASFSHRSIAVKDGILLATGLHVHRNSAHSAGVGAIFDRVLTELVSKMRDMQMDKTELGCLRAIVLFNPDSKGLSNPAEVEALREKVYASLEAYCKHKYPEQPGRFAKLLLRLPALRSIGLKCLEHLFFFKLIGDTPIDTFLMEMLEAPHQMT
test_method_notes: HEK293T THR beta/RXR luciferase reporter assay (Assay 2)
Type: cell-based
setup_conditions: THR-beta, HEK293T reporter assay; read-out: Activity category Assay 2 (EC50, THR-beta agonist)
Below, each entry is listed with its recorded EC50.
assay_metric: EC50

1. Cc1cc(-n2ncc(=O)[nH]c2=O)cc(C)c1Cc1cnc2[nH]cc(C(C)C)c2n1 50 to 250 nM
2. Cc1cc2cc(Oc3c(Cl)cc(-n4nc(C#N)c(=O)[nH]c4=O)cc3Cl)ccc2[nH]c1=O > 10000 nM
3. Nc1nn(-c2cc(Cl)c(Oc3cc(C4CC(F)(F)C4)c(=O)[nH]n3)c(Cl)c2)c(=O)[nH]c1=O 1000 to 10000 nM
4. Nc1nn(-c2cc(Cl)c(Oc3cc(C4CCC4)c(=O)[nH]n3)c(Cl)c2)c(=O)[nH]c1=O 50 to 250 nM
5. CC(C)Nc1n[nH]c2ccc(Oc3c(Cl)cc(-n4nc(C#N)c(=O)[nH]c4=O)cc3Cl)cc12 1000 to 10000 nM
6. CC(C)c1n[nH]c2nnc(Oc3c(Cl)cc(-n4nc(N)c(=O)[nH]c4=O)cc3Cl)cc12 < 50 nM
7. Nc1nn(-c2cc(Cl)c(Oc3n[nH]c(=O)cc3-c3ccc4c(c3)CCCO4)c(Cl)c2)c(=O)[nH]c1=O 250 to 1000 nM

====

system_name: human thyroid receptor beta ligand-binding domain (LBD) (Homo sapiens, UniProt P10828)
Construct: purchased Invitrogen
test_method_notes: TR-FRET thyroid receptor beta coactivator assay (THR biochemical assay, Assay 1)
setup_conditions: Table 5; Assay 1; THRβ; read-out: Activity category Assay 1 THRβ (Emax)

compound	system_name	Emax
Nc1nn(-c2cc(Cl)c(Oc3cc(C4Cc5ccccc54)c(=O)[nH]n3)c(Cl)c2)c(=O)[nH]c1=O (stereo not shown) [Compound 158]	human thyroid receptor beta ligand-binding domain (LBD) (Homo sapiens, UniProt P10828)	< 50%
Nc1nn(-c2cc(Cl)c(Oc3cc(-c4ccc5nnccc5c4)c(=O)[nH]n3)c(Cl)c2)c(=O)[nH]c1=O	human thyroid receptor beta ligand-binding domain (LBD) (Homo sapiens, UniProt P10828)	< 50%
Cc1cc(-n2nc(N)c(=O)[nH]c2=O)cc(C)c1Cc1ccc2c(c1)C1(CC1)C(=O)N2	human thyroid receptor beta ligand-binding domain (LBD) (Homo sapiens, UniProt P10828)	50 to 75%
Cc1cc(-n2nc(N)c(=O)[nH]c2=O)cc(C)c1Cc1ccc2[nH]cc(C(C)C)c2n1	human thyroid receptor beta ligand-binding domain (LBD) (Homo sapiens, UniProt P10828)	50 to 75%
C[C@H]1C[C@H](c2cc(Oc3c(Cl)cc(-n4nc(N)c(=O)[nH]c4=O)cc3Cl)n[nH]c2=O)C1 (single isomer, unassigned)	human thyroid receptor beta ligand-binding domain (LBD) (Homo sapiens, UniProt P10828)	< 50%
CC(c1ccccc1)c1c[nH]c2ccc(Oc3c(Cl)cc(-n4nc(C#N)c(=O)[nH]c4=O)cc3Cl)cc12 (stereo not shown)	human thyroid receptor beta ligand-binding domain (LBD) (Homo sapiens, UniProt P10828)	< 50%
Nc1nn(-c2cc(Cl)c(Oc3cc(C4CC5(CCC5)C4)c(=O)[nH]n3)c(Cl)c2)c(=O)[nH]c1=O	human thyroid receptor beta ligand-binding domain (LBD) (Homo sapiens, UniProt P10828)	< 50%

====

system_name: human thyroid receptor alpha ligand-binding domain (LBD) (Homo sapiens, UniProt P10827)
Sequence (P10827 163-410 isoform P10827-2 limits assumed, other chains not shown): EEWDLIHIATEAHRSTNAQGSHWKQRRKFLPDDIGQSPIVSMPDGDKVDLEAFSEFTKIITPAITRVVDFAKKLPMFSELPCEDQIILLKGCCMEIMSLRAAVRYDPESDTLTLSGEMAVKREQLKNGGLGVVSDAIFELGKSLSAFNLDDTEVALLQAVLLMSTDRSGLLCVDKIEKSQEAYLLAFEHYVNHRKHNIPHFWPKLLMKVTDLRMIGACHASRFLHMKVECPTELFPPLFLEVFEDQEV
test_method_notes: TR-FRET thyroid receptor alpha coactivator assay (THR biochemical assay, Assay 1)
setup_conditions: Table 4, THR-alpha, read-out: Activity category Assay 1 (EC50, THR-alpha agonist activity)
pEC50: −log10 of the molar value.

compound	pEC50
N#Cc1nn(-c2cc(Cl)c(Oc3ccc4[nH]cc(Cc5ccccc5)c4c3)c(Cl)c2)c(=O)[nH]c1=O	< 4.60
Nc1nn(-c2cc(Cl)c(Oc3cc([C@H]4C[C@H](O)C4)c(=O)[nH]n3)c(Cl)c2)c(=O)[nH]c1=O	< 4.60
Nc1nn(-c2cc(Cl)c(Oc3cc(C4Cc5ccccc5C4)c(=O)[nH]n3)c(Cl)c2)c(=O)[nH]c1=O	< 4.60
Cc1cc(-n2nc(N)c(=O)[nH]c2=O)cc(C)c1Cc1ccc2c(c1)C1(CCCC1)C(=O)N2	> 7.30
CC(c1cc(Oc2c(Cl)cc(-n3nc(N)c(=O)[nH]c3=O)cc2Cl)n[nH]c1=O)C1CC(F)(F)C1 (stereo not shown) [Compound 61]	6.00 to 6.60
Cc1cccc(-c2cc(Oc3c(Cl)cc(-n4ncc(=O)[nH]c4=O)cc3Cl)n[nH]c2=O)c1	6.60 to 7.30
O=c1cc(-c2ccc3c(c2)CCCC3)c(Oc2c(Cl)cc(-n3ncc(=O)[nH]c3=O)cc2Cl)n[nH]1	4.60 to 6.00
